Entries and their growth
Tested on: PC-3 prostate
Experiment: NCI-60 one-dose screen, 48 h (100 = growth as untreated, 0 = no growth, -100 = all killed)
Conditions: 10 µM unless noted
Protocol: Growth inhibition of the PC-3 human tumor cell line is measured as a screen for anti-cancer activity. Cells are grown in 96 well plates and exposed to the test compound for 48 hours. Compounds are tested at a single concentration, which is 10^-5 M for most compounds. The reported endpoint is percent growth (GI% or GIPRCNT), where numbers from 0 - 100% represent growth inhibition, and numbers from -100% - 0 represent cell death. For example, a value of 40 represents 60% growth inhibition. […]
About 83,000 compounds went through this panel and 20% of them were active in at least one assay; those are over-represented in the sample as a whole.
MEASUREMENT_LABEL: growth (%)

> print(dat)
                                    compound  measurement.label  reading.unit  result
 1  Cn1cc(-c2nc(N)nnc2-c2c[nH]c3ccccc23)c2cc(Br)ccc21             growth             %    6.53
 2  NC(=O)c1cccc(C#CCNC[C@H]2C[C@@H](n3ccc4c(Cl)ncnc43)[C@H](O)[C@@H]2O)c1             growth             %     102
 3  COC(=O)c1[nH]nc2c1C1(C(=O)N(C)c3ccccc31)C(C#N)=C(N)O2 (stereo not drawn)             growth             %      91
 4  C#C[C@]1(O)CC[C@H]2[C@@H]3CC=C4c5sc(-c6ccc(C)cc6)nc5CC[C@]4(C)[C@H]3CC[C@@]21C             growth             %   -19.9
 5  COc1ccc([C@H]2[C@H](O)C(=O)N2c2cc(OC)c(OC)c(OC)c2)cc1F             growth             %    19.8
 6  CNC(=O)c1cc(-c2ccc(NS(=O)(=O)c3ccc(C)cc3)cc2)nc2cccnc12             growth             %    99.7
 7  NC(N)=Nc1ccc(Oc2cccc(NC(N)=Nc3ccc(Br)cc3)c2)cn1             growth             %    38.2
 8  NC(=O)c1c(NC(=O)c2ccccc2C(F)(F)F)sc2c1CCC(=O)C2             growth             %    17.5
 9  O=C(CNc1nc(-c2cccc([N+](=O)[O-])c2)cs1)Nc1cccc(Cl)c1             growth             %    98.5
10  COc1ccc(NCc2cn(-c3ccc(C(=O)O)cc3)nc2-c2cc(C(F)(F)F)cc(C(F)(F)F)c2)cc1             growth             %      93
11  NC(N)=Nc1ccc(Nc2cccc(Nc3ccc(Cl)c(C(F)(F)F)c3)c2)cn1             growth             %   -24.9
12  CCCn1cnc2c(c1=N)C(c1ccc(Cl)cc1)c1sc3c(CC)cccc3c1O2 (stereo not drawn)             growth             %    3.88
13  O=C(CNc1nc(-c2cccc([N+](=O)[O-])c2)cs1)Nc1cccc([N+](=O)[O-])c1             growth             %   -37.8
14  Cc1ccc2sc3c(c2c1)OC(N)=C(C#N)C3c1ccc(Cl)cc1 (stereo not drawn)             growth             %    71.1
15  CC1(C)CC[C@]23CC[C@]4(C)[C@H](CC[C@@H]5[C@@]6(C)CCCN(CO)C(C)(C)[C@@H]6CC[C@]54C)[C@H]2[C@H]1OC3             growth             %    73.6
16     NC/C(=C/F)COc1ccc2nc(NCc3cccnc3)oc2c1             growth             %     104
17  CN(C)CCNC(=O)c1ccc(-c2nc3ccc4[nH]ncc4c3c3c2COCC3)cc1             growth             %   0.378
18  COc1ccc(C(=O)CSc2nc3c(c(Nc4ccc(S(N)(=O)=O)cc4)n2)CCCC3)cc1             growth             %    83.7
19  O=C1[C@H]2Cc3c([nH]c4ccccc34)[C@@H](c3c(Cl)cccc3Cl)N2C(=O)CN1C1CCN(CC2CCCCC2)CC1             growth             %    63.5
20  CCn1c(SCC(=O)Nc2cccc(C(=O)/C=C/c3ccc(Br)cc3)c2)nc2ccccc2c1=O             growth             %    83.4
21  CC(C)c1ccc(NCc2cn(-c3ccc(C(=O)O)cc3)nc2-c2cc(C(F)(F)F)cc(C(F)(F)F)c2)cc1             growth             %    70.4
22  CCCCCc1ccc(S(=O)(=O)Nc2cccc(-c3csc(NCCN4CCN(C)CC4)n3)c2)cc1             growth             %    65.7
23            C#Cc1nc(/C=C/C(=O)c2nccn2C)cs1             growth             %   -78.9
24  CCn1c(SCC(=O)Nc2cccc(C(=O)/C=C/c3ccccc3Cl)c2)nc2ccccc2c1=O             growth             %    75.4
25         Cc1cc2nc(C(Cl)Cl)nc(-c3cccs3)n2n1             growth             %    11.2
26    O=C(Nc1ccc2c(ccn2Cc2ccccn2)c1)c1cnccn1             growth             %     101
27  NC(N)=Nc1ccc(Oc2cccc(Nc3ccc(Br)c(C(F)(F)F)c3)c2)cn1             growth             %     -92
28  N#Cc1cnc2ccc(-c3cnc4[nH]ncc4c3)cc2c1N1CCc2cc(F)c(Cl)cc21             growth             %    6.58
29  Cc1c(F)cc(C(N)=O)cc1NCC(=O)Nc1ccc([N+](=O)[O-])cc1             growth             %    89.5
30  CCO/C=N/C1=C(C#N)C(c2ccc(F)cc2)c2sc3c(CC)cccc3c2O1 (stereo not drawn)             growth             %    13.6
31  NS(=O)(=O)c1ccc(Nc2nc(N/N=C/c3ccc(Cl)cc3)nc(Nc3ccccc3)n2)cc1             growth             %    51.7
32  O=C(Nc1nonc1-c1ccccc1)c1ccc(C(F)(F)F)cc1             growth             %    71.7
33  N#Cc1c(-c2cccs2)cc(-c2cnccn2)nc1SCC(=O)c1ccc(F)cc1             growth             %    87.2

====

Tested on: SF-295 CNS
Assay: NCI-60 one-dose screen, 48 h
Conditions: 10 µM unless noted
Method: Cells are grown in 96 well plates and exposed to the test compound for 48 hours. Compounds are tested at a single concentration, which is 10^-5 M for most compounds. The reported endpoint is percent growth (GI% or GIPRCNT), where numbers from 0 - 100% represent growth inhibition, and numbers from -100% - 0 represent cell death. For example, a value of 40 represents 60% growth inhibition. A value of 0 means no net growth occurred over the course of the experiment. […]
Compounds without any hit were thinned out: in the full panel of roughly 83,000, 20% have a hit. The source made the active and inactive calls. Rule for the calls: active = growth percent below 10; inactive = the rest.
Outcomes: active, inactive

> print(dat)
                                    compound  experimental.target  classification
 1  Cn1cc(CNc2nc3ccc(OC/C(=C/F)CN)cc3o2)ccc1=O           SF-295 CNS        inactive
 2  O=C(Nc1nc2ccc([N+](=O)[O-])cc2s1)Nc1ccccc1Cl           SF-295 CNS        inactive
 3  COc1ccc(Oc2ccc(/C=N/NC(=O)CSc3nc4ccccc4c(=O)n3-c3ccc(Cl)cc3)cc2)cc1           SF-295 CNS        inactive
 4  CCCCCc1ccc(S(=O)(=O)Nc2cccc(-c3csc(NCCN4CCN(C)CC4)n3)c2)cc1           SF-295 CNS        inactive
 5  COc1cc(-c2nc3sccn3c2-c2ccnc(S(C)(=O)=O)n2)ccc1F           SF-295 CNS        inactive
 6  COc1ccc(-c2nc(C(Cl)Cl)nc3cc(-c4ccccc4)nn23)cc1           SF-295 CNS          active
 7   c1n[nH]cc1-c1nc2ccc3[nH]ncc3c2c2c1CCCC2           SF-295 CNS        inactive
 8  NC(N)=Nc1ccc(Oc2cccc(Nc3ccc(Br)c(C(F)(F)F)c3)c2)cc1           SF-295 CNS          active
 9  CS(=O)(=O)Nc1cc(-c2ccc3ncc(C#N)c(Nc4cccc(Cl)c4F)c3c2)cnc1Cl           SF-295 CNS          active
10  N/C(=N\C(N)=N\c1nc2ccccc2s1)c1ccc2ccccc2c1           SF-295 CNS        inactive
11  COc1cc2oc(-c3cccc(NC(=O)c4cc(N)ccc4Cl)c3)cc(=O)c2c(OC)c1OC           SF-295 CNS        inactive
12  COc1cc(-c2nc(SCCC(C)C)nc(NNC(=O)c3ccncc3)c2C#N)cc(OC)c1OC           SF-295 CNS        inactive
13  N#Cc1c(-c2cccs2)cc(-c2cnccn2)nc1SCC(=O)c1ccc(F)cc1           SF-295 CNS        inactive
14   COc1ccccc1NC1=C(Cl)C(=O)c2nc(C)ccc2C1=O           SF-295 CNS        inactive
15          COc1cc(OC)c(S(N)(=O)=O)cc1C(C)=O           SF-295 CNS        inactive
16  C=C(C)[C@@H]1CC[C@]2(C(=O)NCCCCCN(CCC#N)CCC#N)CC[C@]3(C)[C@H](CC[C@@H]4[C@@]5(C)CCC(=O)C(C)(C)[C@@H]5CC[C@]43C)[C@@H]12           SF-295 CNS        inactive
17  Nc1ccccc1NC(=O)c1ccc(NC(=O)C/C=C/c2cccnc2)cc1           SF-295 CNS        inactive
18  COc1cc(C2N=C(NNc3ccccc3)NC(C)=C2C(C)=O)ccc1O (stereo not given)           SF-295 CNS        inactive
19  Cc1cc(C)cc(C(=O)Nc2cccc(C#Cc3cccc4[nH]nc(N)c34)c2)c1           SF-295 CNS        inactive
20  CN(C)CCN(C)c1ccc2ncc(C#Cc3cncc(C(=O)Nc4ccc(CN5CCN(C)CC5)c(C(F)(F)F)c4)c3)n2n1           SF-295 CNS        inactive
